- MEASURED_ON: Glutamate receptor 4 (Homo sapiens, UniProt P48058)
- Sequence (P48058 whole entry): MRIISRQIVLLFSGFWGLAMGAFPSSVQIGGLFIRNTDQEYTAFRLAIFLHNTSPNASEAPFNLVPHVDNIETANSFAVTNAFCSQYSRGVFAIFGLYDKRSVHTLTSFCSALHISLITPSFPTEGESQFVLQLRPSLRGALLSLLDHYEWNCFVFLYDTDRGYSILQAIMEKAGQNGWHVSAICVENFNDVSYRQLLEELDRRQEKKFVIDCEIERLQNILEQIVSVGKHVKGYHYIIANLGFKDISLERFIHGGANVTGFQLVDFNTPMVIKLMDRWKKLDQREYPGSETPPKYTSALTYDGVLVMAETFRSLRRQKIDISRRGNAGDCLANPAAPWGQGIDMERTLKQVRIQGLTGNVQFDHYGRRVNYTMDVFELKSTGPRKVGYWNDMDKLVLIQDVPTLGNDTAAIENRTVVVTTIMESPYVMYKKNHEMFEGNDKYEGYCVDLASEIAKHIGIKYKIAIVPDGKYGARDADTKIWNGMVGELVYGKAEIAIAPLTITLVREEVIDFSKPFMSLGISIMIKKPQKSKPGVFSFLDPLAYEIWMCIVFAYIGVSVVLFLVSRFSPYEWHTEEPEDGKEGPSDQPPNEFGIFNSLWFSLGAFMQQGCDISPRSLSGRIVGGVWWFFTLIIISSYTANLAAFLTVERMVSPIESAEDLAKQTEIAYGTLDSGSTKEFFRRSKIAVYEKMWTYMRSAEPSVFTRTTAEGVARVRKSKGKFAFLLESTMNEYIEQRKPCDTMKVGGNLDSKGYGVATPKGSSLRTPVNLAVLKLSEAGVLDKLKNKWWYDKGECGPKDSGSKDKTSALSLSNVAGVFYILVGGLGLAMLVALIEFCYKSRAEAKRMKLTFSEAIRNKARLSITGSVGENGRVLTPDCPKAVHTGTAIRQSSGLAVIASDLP
- TEST_METHOD_NOTES: Activity against human GLUR4 flop expressed in HEK293 cells assessed as glutamate-stimulated calcium influx by FLIPR assay
- Assay type: functional, cell-based
OBSERVED_PROPERTY: EC50

State the recorded EC50 for every item in the following list.
1. CC(C)(C)c1ccc(-c2c(C(=O)O)sc(C(F)(F)F)c2C#N)cc1
2. CC(C)(C)c1ccc(-c2c(C(=O)O)sc(Sc3ccccc3)c2C#N)cc1
3. C[S+]([O-])c1sc(C(=O)O)c(-c2ccc(C(C)(C)C)cc2)c1C#N (stereo unspecified)

Outgoing:
0.488 µM
> 3 µM
> 3 µM

State the recorded EC50 for every item in the following list.
1. CCOC(=O)c1sc(SC)c(C#N)c1-c1ccc(C(C)(C)C)cc1
2. CCSc1sc(C(=O)O)c(-c2ccc(C(C)(C)C)cc2)c1C#N
3. CN(C)c1sc(C(=O)O)c(-c2ccc(C(C)(C)C)cc2)c1C#N

Outgoing:
> 3 µM
> 3 µM
> 3 µM

State the recorded EC50 for every item in the following list.
1. CSc1sc(C(=O)O)c(-c2ccc(-c3ccccc3)cc2)c1C#N
2. CC(C)(C)c1ccc(-c2c(C(=O)O)sc(N3CCCC3)c2C#N)cc1
3. CCCSc1sc(C(=O)O)c(-c2ccc(C(C)(C)C)cc2)c1C#N
4. CCc1sc(C(=O)O)c(-c2ccc(C(C)(C)C)cc2)c1C#N
5. CSc1oc(C(=O)O)c(-c2ccc(C(C)(C)C)cc2)c1C#N

Outgoing:
1. > 3 µM
2. > 3 µM
3. > 3 µM
4. 1.22 µM
5. > 3 µM
